Attribution: PubChem BioAssay (NCATS)

- System: Es-2
- experimental-details: Primary qHTS to identify gynecologic anti-cancer compounds using libraries of approved drugs and bioactive compounds (AID 1345084); further: nearly all actives have a fitted effect of over 55% in size
- test-context: Gynecologic cancer cell panel viability, ATPlite luminescence, 48 h; series mostly up to 57.5 µM
Inconclusive results are not listed. Activity calls are given as the source filed them. The call rests on the fitted dose curve; in most records, active means well fitted cell-killing curve with a large enough effect; inconclusive means small, poorly fitted or top-dose-only effect, or effect the other way; inactive means flat fitted curve, though single readings scatter.
Your reply should match one of these outcome classes. active, inactive

*Q* Please indicate how the test categorized CCN(CC)C(=S)SSC(=S)N(CC)CC .
*A* active

====

# cell viability, % of control (lower = more cytotoxic) annotations
- experimental-details: High-throughput drug toxicity screening in the BPDCN cell line Gen2.2 (AID 1224824);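 further: cells exposed to compounds for 48 h before reading; 100% = DMSO and 0% = bortezomib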
- test-context: Gen2.2 BPDCN cells; at 45.8 µM (top of the series) unless noted
Peptide text beside a SMILES is read from it.
Numeric only. Scale: %

CCc1nc(N)nc(N)c1-c1ccc(Cl)cc1    136
O=C(OC1C[C@H]2CC[C@@H](C1)[N+]21CCCC1)C(O)(c1ccccc1)c1ccccc1 (stereo partly specified)    120
COc1cc2c(N3CCN(C(=O)Nc4ccc(OC(C)C)cc4)CC3)ncnc2cc1OCCCN1CCCCC1    7.51
Cc1ccc(S(=O)(=O)NC(=O)NN2CC3CCCC3C2)cc1 (stereo unspecified)    109
CCN(CCO)CCCC(C)Nc1ccnc2cc(Cl)ccc12 (stereo unspecified)    86.1
CCCCN(CCCC)CCC(O)c1cc2c(Cl)cc(Cl)cc2c2cc(C(F)(F)F)ccc12 (stereo unspecified)    34.8

*Q* Quote cell viability, % of control (lower = more cytotoxic) reported for COCCCN1CCC(NC(=O)c2cc(Cl)c(N)c3c2OCC3)CC1 please.
*A* 418

*Q* Quote cell viability, % of control (lower = more cytotoxic) reported for CC(S)C(=O)NCC(=O)O (stereo unspecified) please.
*A* 104

*Q* Quote cell viability, % of control (lower = more cytotoxic) reported for O=Nc1c(-c2c(O)[nH]c3cc(Br)ccc23)[nH]c2ccccc12 please.
*A* 1.04

*Q* Quote cell viability, % of control (lower = more cytotoxic) reported for CC1(C)C(=O)N(CCN2CCC(C(=O)c3ccc(F)cc3)CC2)c2ccccc21 please.
*A* 37.4

*Q* Quote cell viability, % of control (lower = more cytotoxic) reported for COc1cc(OC)c(C(=O)CCCN2CCCC2)c(OC)c1 please.
*A* 165

*Q* Quote cell viability, % of control (lower = more cytotoxic) reported for CC1=C(C)C(=O)C(C(CCCCCC(=O)O)c2ccccc2)=C(C)C1=O (stereo unspecified) please.
*A* 195

*Q* Quote cell viability, % of control (lower = more cytotoxic) reported for CC1=C(C(=O)O)N2C(=O)[C@@H](NC(=O)[C@H](N)C3=CCC=CC3)[C@H]2SC1 please.
*A* 145

*Q* Quote cell viability, % of control (lower = more cytotoxic) reported for COc1ccccc1N1CCN(CCN(C(=O)C2CCCCC2)c2ccccn2)CC1 please.
*A* 39.9

*Q* Quote cell viability, % of control (lower = more cytotoxic) reported for CN(C)CCc1c[nH]c2ccc(Cn3cncn3)cc12 please.
*A* 102

*Q* Quote cell viability, % of control (lower = more cytotoxic) reported for Cn1c(NCCN(CCO)CCCc2ccc([N+](=O)[O-])cc2)cc(=O)n(C)c1=O please.
*A* 108

*Q* Quote cell viability, % of control (lower = more cytotoxic) reported for COC(=O)[C@H](Cc1ccccc1)NC(=O)[C@@H](N)CC(=O)O (H-Asp-Phe-OMe) please.
*A* 280

*Q* Quote cell viability, % of control (lower = more cytotoxic) reported for O=C(NC(Cc1cc(=O)[nH]c2ccccc12)C(=O)O)c1ccc(Cl)cc1 (stereo unspecified) please.
*A* 149

*Q* Quote cell viability, % of control (lower = more cytotoxic) reported for O=C(NOCC1CC1)c1ccc(F)c(F)c1Nc1ccc(I)cc1Cl please.
*A* 6.36

*Q* Quote cell viability, % of control (lower = more cytotoxic) reported for O=c1c(O)c(-c2ccc(O)cc2O)oc2cc(O)cc(O)c12 please.
*A* 74.1

*Q* Quote cell viability, % of control (lower = more cytotoxic) reported for C[C@]12CCC(=O)C=C1CC[C@@H]1[C@H]2[C@@H](O)C[C@@]2(C)[C@H]1CC[C@]2(O)C(=O)CO please.
*A* 208

*Q* Quote cell viability, % of control (lower = more cytotoxic) reported for O=C1NC(=O)C(c2ccccc2[N+](=O)[O-])=C1Nc1ccc(O)c(Cl)c1 please.
*A* 124

*Q* Quote cell viability, % of control (lower = more cytotoxic) reported for Nc1ccn([C@@H]2O[C@H](CO)[C@@H](O)C2O)c(=O)n1 (stereo partly specified) please.
*A* 225

====

- experimental-details: Quantitative High-Throughput drug screen in 47 multiple myeloma cell lines against the NCATS MIPE library collection: OCIMY1_PLB cell viability assay (AID 1918979); further: nearly all actives have a fitted effect of over 35% in size;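 on viability: 100% = DMSO-only wells and 0% = cell-free media-only wells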
- test-context: OCI-MY1 myeloma viability, CellTiter-Glo ATP, 48 h; series mostly up to 45.8 µM
Results filed as inconclusive are left out. The source made the active and inactive calls. The call rests on the fitted dose curve; in most records, active means well fitted cell-killing curve with a large enough effect; inconclusive means small, poorly fitted or top-dose-only effect, or effect the other way; inactive means no such curve, though single readings can be large or run the other way.
Your reply should match one of these outcome classes. T = active, F = inactive

Worked examples follow.
C=C(c1ccc(C(=O)O)cc1)c1cc2c(cc1C)C(C)(C)CCC2(C)C    F
NNc1nncc2ccccc12    F
C[C@@H](c1ncncc1F)[C@](O)(Cn1cncn1)c1ccc(F)cc1F    F
CCCCN(CCCC)CCC(O)c1cc2c(Cl)cc(Cl)cc2c2cc(C(F)(F)F)ccc12 (configuration not stated)    F
CCCCCCCCCCCCCCCCCCCCCCO    F
COc1cc2nc(N3CCN(C(=O)C4CCCO4)CC3)nc(N)c2cc1OC (configuration not stated)    F
Clc1ccc2c(N3CCN(CCCN4CCN(c5ccnc6cc(Cl)ccc56)CC4)CC3)ccnc2c1    F
NCCCCNCCCN    T
CC(C)c1ccc2c(c1)c(SC(C)(C)C)c(CC(C)(C)C(=O)O)n2Cc1ccc(Cl)cc1    F
Cc1cccc(C#Cc2ccccc2)n1    F

*Q* Please indicate how the test categorized Cc1ccc(NC(=O)c2ccc(CN3CCN(C)CC3)cc2)cc1Nc1nccc(-c2cccnc2)n1 .
*A* F

*Q* Please indicate how the test categorized O=c1oc2cc(O)ccc2s1 .
*A* F

*Q* Please indicate how the test categorized CN(C)CCc1c[nH]c2ccc(Cn3cncn3)cc12 .
*A* F

*Q* Please indicate how the test categorized CN(C)CCCC1(c2ccc(F)cc2)OCc2cc(C#N)ccc21 (configuration not stated) .
*A* F

*Q* Please indicate how the test categorized CCN(CC)C(=S)SSC(=S)N(CC)CC .
*A* T

*Q* Please indicate how the test categorized O=c1c(O)c(-c2ccc(O)cc2O)oc2cc(O)cc(O)c12 .
*A* F

*Q* Please indicate how the test categorized Cc1cc2c(s1)Nc1ccccc1N=C2N1CCN(C)CC1 .
*A* F

*Q* Please indicate how the test categorized CCC(C)(Oc1ccc(C2(c3ccc(OC(C)(CC)C(=O)O)cc3)CCCCC2)cc1)C(=O)O (configuration not stated) .
*A* F

*Q* Please indicate how the test categorized COc1c(O)cc2c(c1O)[C@@H]1O[C@H](CO)[C@@H](O)[C@H](O)[C@H]1OC2=O .
*A* F

*Q* Please indicate how the test categorized Cc1nc2n(c(=O)c1CCN1CCC(c3noc4cc(F)ccc34)CC1)CCCC2 .
*A* F

*Q* Please indicate how the test categorized CC[C@]1(O)C[C@H]2CN(CCc3c([nH]c4ccccc34)[C@@](C(=O)OC)(c3cc4c(cc3OC)N(C=O)[C@H]3[C@@](O)(C(=O)OC)[C@H](OC(C)=O)[C@]5(CC)C=CCN6CC[C@]43[C@@H]65)C2)C1 .
*A* T

*Q* Please indicate how the test categorized COc1ccc(C2(C#N)CCC(C(=O)O)CC2)cc1OC1CCCC1 (configuration not stated) .
*A* F

====

- experimental-details: qHTS for differential inhibitors of proliferation of Plasmodium falciparum line W2 (AID 1883);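 further: parasites grown with compound for 72 h before lysis and staining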
- test-context: Plasmodium falciparum W2 proliferation inhibition; series mostly up to 28.7 µM
Results filed as inconclusive are left out. Calls of active or inactive are those of the source. Calls follow the shape of the dose curve; as a rule, active = well fitted curve in the direction sought with a large enough effect; inconclusive = small, poorly fitted or top-dose-only effect, or another doubt; inactive = no such curve, though single readings can be large or run the other way.
Your reply should match one of these outcome classes. t for active, f for inactive

Worked examples follow.
O=C1c2c(O)cc(O)cc2OC(c2ccc(O)c(O)c2)C1O (stereo not drawn)    t
Oc1ccc(-c2nc(-c3ccc(F)cc3)c(-c3ccncc3)[nH]2)cc1    t
CC(=O)O[C@H]1C(=O)[C@@]2(C)C([C@H](OC(=O)c3ccccc3)[C@]3(O)C[C@H](OC(=O)[C@H](O)[C@@H](NC(=O)c4ccccc4)c4ccccc4)C(C)=C1C3(C)C)[C@]1(OC(C)=O)CO[C@@H]1C[C@@H]2O (stereo partly drawn)    t

*Q* Please indicate how the test categorized COc1ccccc1N1CCN(CCN(C(=O)C2CCCCC2)c2ccccn2)CC1 .
*A* t

*Q* Please indicate how the test categorized OC(CN1CCN(c2cccc(Cl)c2)CC1)C(c1ccccc1)c1ccccc1 (stereo not drawn) .
*A* t

*Q* Please indicate how the test categorized O=c1c(O)c(-c2cc(O)c(O)c(O)c2)oc2cc(O)cc(O)c12 .
*A* t

*Q* Please indicate how the test categorized NCCCCNCCCN .
*A* f

*Q* Please indicate how the test categorized COc1ccc2cc([C@H](C)C(=O)O)ccc2c1 .
*A* f

*Q* Please indicate how the test categorized O=C1c2ccccc2-c2n[nH]c3cccc1c23 .
*A* t
